B1: POU domain, class 3, transcription factor 1, residues 247 to 324; numbered along this chain, Q03052 (parent)
chain: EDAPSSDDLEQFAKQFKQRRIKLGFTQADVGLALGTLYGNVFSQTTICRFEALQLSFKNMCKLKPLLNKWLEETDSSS

Variants of: B1
Test: abundance fitness (aPCA) (normalised: wild type 0, dead -1); higher = more abundant; growth selection in yeast, the domain comes from the species named
Conditions: Homo sapiens
Label True when abundance fitness is at or above -0.4; otherwise label False.

Reference set (2 entries):
Enquiry: Would you say "EDAPSSDDLEQFAKQFKQRRIKLGWTQADVGLALGTLYGNVFSQTTICRFEALQLSFKNMCKLKPLLNKWLEETDSSS" shows abundance fitness at minimum -0.4?
Return: False

Enquiry: Evaluate "EDAPSSDDLEQFAKQFKQRRIKLGFTQADVGLALGTLYGNVFSQTTICRFEALQLSFKNMCKLKPLANKWLEETDSSS" : abundance fitness at minimum -0.4?
Return: False

New cases:
Enquiry: Does "EDAPSSDDLEQFAKQFKQRRIKLGFTQADVDLALGTLYGNVFSQTTICRFEALQLSFKNMCKLKPLLNKWLEETDSSS" have a reported abundance fitness of at least -0.4?
Return: False

Enquiry: Answer whether abundance fitness of "EDAPSSDDLEQFAKQFKQRRIKLGFTQADVGLALGTLYGNVFSQTTTCRFEALQLSFKNMCKLKPLLNKWLEETDSSS" is greater than or equal to -0.4.
Return: False

Enquiry: Textbook exercise: given the entry "EDAPSSDDLEQFAKQFKQRRIKLGFTQADVGLALGTLYGNVFSQTTICRFEALQWSFKNMCKLKPLLNKWLEETDSSS" , state whether its abundance fitness is greater than or equal to -0.4.
Return: False

Enquiry: Could you please find out whether "EDAPSSDDLEQFAKQFKQRRIKLGFTQADVGLALGTLYGNVFSQTTICRFEALQLSFKNMCKLYPLLNKWLEETDSSS" has abundance fitness that meets -0.4 or exceeds it?
Return: False

Enquiry: Quick check, abundance fitness >= -0.4? "EDAPSSDDLEQFAKQFKQRRIKLGFTQADVGLALGTLNGNVFSQTTICRFEALQLSFKNMCKLKPLLNKWLEETDSSS"
Return: True

Values compiled from the Human Domainome abundance scans (Beltran et al. 2025).
